Tested Target: T1, Human ROR1 (receptor tyrosine kinase-like orphan receptor 1) (human, UniProt Q01973 30-937)
T1 construct: also called hROR1; K562/ROR1
T1 sequence (Q01973 30-937): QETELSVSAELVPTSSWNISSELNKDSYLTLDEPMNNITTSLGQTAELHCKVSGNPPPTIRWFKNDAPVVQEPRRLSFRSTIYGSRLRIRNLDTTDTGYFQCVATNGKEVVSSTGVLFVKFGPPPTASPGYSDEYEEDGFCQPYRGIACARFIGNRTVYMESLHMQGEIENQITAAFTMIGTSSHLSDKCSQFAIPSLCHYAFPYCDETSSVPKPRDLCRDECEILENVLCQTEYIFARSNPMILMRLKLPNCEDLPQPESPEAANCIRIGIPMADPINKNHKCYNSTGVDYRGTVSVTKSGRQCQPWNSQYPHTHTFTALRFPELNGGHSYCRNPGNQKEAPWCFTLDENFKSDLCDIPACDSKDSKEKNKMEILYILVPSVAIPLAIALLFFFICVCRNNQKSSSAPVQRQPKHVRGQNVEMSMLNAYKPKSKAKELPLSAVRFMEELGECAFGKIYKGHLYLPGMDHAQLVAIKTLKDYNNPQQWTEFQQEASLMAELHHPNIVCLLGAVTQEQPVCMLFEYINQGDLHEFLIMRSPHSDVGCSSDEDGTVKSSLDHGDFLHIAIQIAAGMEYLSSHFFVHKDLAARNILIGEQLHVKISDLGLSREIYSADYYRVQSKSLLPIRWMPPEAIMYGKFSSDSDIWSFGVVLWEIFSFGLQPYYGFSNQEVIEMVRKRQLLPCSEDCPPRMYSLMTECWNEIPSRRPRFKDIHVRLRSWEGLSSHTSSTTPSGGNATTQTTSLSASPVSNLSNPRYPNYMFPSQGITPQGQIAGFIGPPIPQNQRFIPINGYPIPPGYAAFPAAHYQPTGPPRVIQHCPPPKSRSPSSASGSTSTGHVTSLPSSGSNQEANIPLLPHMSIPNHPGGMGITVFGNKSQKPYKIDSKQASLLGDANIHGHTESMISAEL
Assay Name: flow cytometry competition, competitor R12 scFv on ROR1-expressing cells (n = 1)
Measured Quantity: pIC50
Field pIC50 (float): negative decimal logarithm of the concentration in molar.

Example cases with answers are listed next.
Clone 350 scFv (scFv) scFv: EVQLVESGGGLVQPGRSLRLSCTASGFTFGDYAMSWVRQAPGKGLEWVSSISGSGRSTDHADYVKGRFTISRDNSKNTVYLQMNRLRAEDTAVYYCAKVSNYEYYFDYWAQGTLVTVSSQPVLTQPHSVSESPGKTVTISCTRSSGSIASNYVQWYQQRPGSAPTTVIYEDNQRPSGVPDRFSGSIDSSSNSASLTISGLKTEDEADYYCQSYDSSNHVFGTGTKLTVL = 7.31
Clone 298 scFv (scFv) scFv: EVQLVESGGGLVQPGRSLRLSCTASGFTFGDYAMSWVRQAPGKGLEWVSSISGSGRSTDHADYVKGRFTISRDNSKNTVYLQMNRLRAEDTAVYYCAKVSNYEYYFDYWAQGTLVTVSSGGGGSGGGGSGGGGSEIVLTQSPSVSVAPGQTARITCGGSNIGSESVNWYQWKSGQVPVLVVSDTTDRPSGIPGRFTGTRSGTTATLTISGVEAGDEADYHCQVWDDTGDHPVFGGGTKLTVL = 7.38
Clone 83B scFv (scFv, De-glycosylation variant of clone 83 (S to N at VH position 53, Kabat)) scFv: QVQLVQSGAEVKKPGASVKVSCKASGYTFTSYYMHWVRQAPGQGLEWMGIINPNGGSTSYAQKFQGRVTMTRDTSTSTVYMELSSLRSEDTAVYYCARDSSYDAFDIWGQGTMVTVSSGGGGSGGGGSGGGGSAIQLTQSPSTLSASVGDRVTITCQASQDISNYLNWYQQKPGKAPKLLINDASYLETGVPSRFSGSGSGTDFTLTISSLQPEDIATYYCQQYESLPYTFGQGTKLEIK = 7.82
Clone 366 scFv (scFv, Printed without a linker) scFv: EVQLVESGGGLVQPGRSLRLSCTASGFTFGDYAMSWVRQAPGKGLEWVSSISGSGRSTDHADYVKGRFTISRDNSKNTVYLQMNRLRAEDTAVYYCAKVSNYEYYFDYWAQGTLVTVSSQSVLTQPPSVPGTPGQRVTITCSGSRFNIGSNTVNWYQQLPGTAPKLLIYSNNQRPSGVPDRFSGSKSGTSASLAISGLQSEDEADYYCAAWDDSLNGYVFGTGTKLTVL = 7.27

Attention now turns to another entry.
Prompt line: Suppose we examine the binder Clone 305 scFv (scFv) scFv: EVQLVESGGGLVQPGRSLRLSCTASGFTFGDYAMSWVRQAPGKGLEWVSSISGSGRSTDHADYVKGRFTISRDNSKNTVYLQMNRLRAEDTAVYYCAKVSNYEYYFDYWAQGTLVTVSSQSVLTQPPSVSVAPGQTARITCGGNNIGSTSVHWFQQKPGQAPVLVVYDDSDRPSGIPERFSGSNSGNTATLTISRVEAGDEADYYCQVWDNDSDHRVFGGGTKLTVL ; what pIC50 value has been reported?
Response line: 7.20
